systemUnderTest: Human α4β2 (Homo sapiens, UniProt P17787+P43681)
Construct: host or cells: SH-EP1
measurementNotes: Competition binding to human α4β2 receptors in membranes of SH-EP1/human α4β2 cells ([3H]-nicotine)
appliedConditions: membrane competition binding, read-out: Human α4β2 Ki
Items are presented alongside their recorded pKi.
Bear in mind: pKi is minus log10 of a mol/L concentration; give just that figure.

Previously resolved entries follow.
O=C(CC1CCCO1)N1C2CNCC1C2 (stereo not drawn)	5.70
CCC(C)C(=O)N1CC2CC(C1)N2 (stereo not drawn)	6.82
Cc1cc(C(=O)N2CC3CC(C2)N3)no1	5.96
Cn1c(C(=O)N2C3CNCC2C3)cc2ccccc21	5.54
CC(C)OC(=O)N1CC2CC(C1)N2	6.89

Value of pKi reported for the molecule O=C(NCc1ccccc1)N1CC2CC(C1)N2 is 6.57

pKi reading for O=C(C1Cc2ccccc2C1)N1CC2CC(C1)N2 : 6.10

Recorded result, C[C@@H]1C[C@H]1C(=O)N1CC2CC(C1)N2 , pKi: 9.00

The molecule listed as O=C(C1CC=CC1)N1C2CNCC1C2 shows pKi equal to 6.09

What the record says about O=C(NCc1ccc(Cl)c(Cl)c1)N1C2CNCC1C2 : pKi is 5.51

Measured pKi of CC(C)CC(=O)N1C2CNCC1C2 : 6.92

====

systemUnderTest: Human α4β2 (Homo sapiens, UniProt P17787+P43681)
Construct: host or cells: SH-EP1
measurementNotes: Competition binding to human α4β2 receptors in membranes of SH-EP1/human α4β2 cells ([3H]-nicotine)
appliedConditions: Human α4β2 Ki, membrane competition binding
Let's look at some compounds and their measured Ki.
Quick note: give the figure in µM, leave out the unit.

Value of measured Ki for the entry O=C([C@H]1C[C@H]1F)N1CC2CC(C1)N2 [drawing 110] : 0.0052

====

systemUnderTest: α6β3β4α5 (Homo sapiens, UniProt P30926+Q15825)
Construct: host or cells: SH-EP1
measurementNotes: Competition binding to α6β3β4α5 receptors in membranes of SH-EP1/α6β3β4α5 cells ([3H]-epibatidine)
appliedConditions: α6β3β4α5 Ki, membrane competition binding
experimentalReadout: log10(Ki) (log10 of the value in µM)
Form field - Quantity: Ki; Unit: µM; Scale: log10

These recorded examples may help you get a feel for the data.
CC(C)C(=O)N1CC2CC(C1)N2	-0.08
O=C(C1CC12CCC2)N1CC2CC(C1)N2 (stereo not shown)	-1.30
C[C@H]1C[C@H]1C(=O)N1CC2CC(C1)N2	-1.24
CC1CC1C(=O)N1CC2CC(C1)N2 (stereo not shown)	-0.92
O=C([C@@H]1C[C@H]1c1ccccc1)N1CC2CC(C1)N2	-1.19
O=C([C@H]1C[C@@H]1F)N1CC2CC(C1)N2 [drawing 111]	-0.92
O=C([C@H]1C[C@H]1F)N1CC2CC(C1)N2 [drawing 163]	-0.82
O=C(NCc1ccc(Cl)cc1Cl)N1CC2CC(C1)N2	-1.42

// returns log10(Ki) for C[C@H]1C[C@@H]1C(=O)N1CC2CC(C1)N2 [drawing 170] with α6β3β4α5 (Homo sapiens, UniProt P30926+Q15825); value = 0.23

The recorded log10(Ki) with α6β3β4α5 (Homo sapiens, UniProt P30926+Q15825) for O=C(C1CC1)N1CC2CC(C1)N2 was -0.85

Entry O=C([C@H]1C[C@@H]1F)N1CC2CC(C1)N2 [drawing 165] , tested on α6β3β4α5 (Homo sapiens, UniProt P30926+Q15825), has a reported log10(Ki) of -0.11

The recorded log10(Ki) with α6β3β4α5 (Homo sapiens, UniProt P30926+Q15825) for O=C(C1CC1(F)F)N1CC2CC(C1)N2 (stereo not shown) was -0.29

# value of log10(Ki), α6β3β4α5 (Homo sapiens, UniProt P30926+Q15825), item O=C([C@H]1C[C@H]1F)N1CC2CC(C1)N2 [drawing 110] = -0.28

Test item O=C(CSc1ccc(Cl)c(Cl)c1)N1CC2CC(C1)N2 ; α6β3β4α5 (Homo sapiens, UniProt P30926+Q15825); reported log10(Ki) was -1.00

Measured log10(Ki) for this entry CCCC(=O)N1CC2CC(C1)N2 on α6β3β4α5 (Homo sapiens, UniProt P30926+Q15825): -0.54

Recorded log10(Ki) for [2H]C1([2H])C([2H])([2H])C1([2H])C(=O)N1CC2CC(C1)N2 on α6β3β4α5 (Homo sapiens, UniProt P30926+Q15825) was -0.92

O=C([C@@H]1C[C@H]1F)N1CC2CC(C1)N2 on α6β3β4α5 (Homo sapiens, UniProt P30926+Q15825) gives log10(Ki) = -1.04

Considering C[C@@H]1C[C@H]1C(=O)N1CC2CC(C1)N2 , its log10(Ki) with α6β3β4α5 (Homo sapiens, UniProt P30926+Q15825) was recorded as -1.02

Given the compound O=C([C@@H]1C[C@@H]1F)N1CC2CC(C1)N2 and test system α6β3β4α5 (Homo sapiens, UniProt P30926+Q15825), the measured log10(Ki) is -0.55

Field log10(Ki) (α6β3β4α5 (Homo sapiens, UniProt P30926+Q15825)), entry C[C@H]1C[C@@H]1C(=O)N1CC2CC(C1)N2 [drawing 157] : 0.41

# lookup: O=C(C1CC12CCCC2)N1CC2CC(C1)N2 (stereo not shown) on α6β3β4α5 (Homo sapiens, UniProt P30926+Q15825), log10(Ki) = -1.02

Per the reported α6β3β4α5 (Homo sapiens, UniProt P30926+Q15825) data, CC1(C)CC1C(=O)N1CC2CC(C1)N2 (stereo not shown) has log10(Ki) of -0.92

Hey, just so you know, these numbers are from patent US8802694B2.
